assay: Phase 1 multiple-dose study, plasma PK; assay type: in vivo, human; details: both sexes, human, plasma, oral, 6 mg, Day 10; Cohort 1 (6 mg TID); read-out: Plasma Cmax, geometric mean (geometric CV %)
measured-parameter: Cmax (ng/mL)
Provide only the numeric value, understood in ng/mL.

Fill blank: measured Cmax of the molecule C[C@H]1CN2CCNCc3ccc(C(=O)NCC(F)F)c1c32 is ____. 16.5

----------
assay: clinical; details: both, human, CSF, oral, 15 mg, CSF Tmax, median (minimum, maximum), Day 11; Cohort 4A (15 mg BID)
measured-parameter: Tmax (h)
Field: numeric (h). Do not append units.

Fill blank: measured Tmax of the compound C[C@H]1CN2CCNCc3ccc(C(=O)NCC(F)F)c1c32 is ____. 3.02

----------
assay: Phase 1 multiple-dose study, plasma PK; type: in vivo, human; conditions: both sexes, human, plasma, oral, 12 mg, Day 8; Cohort 2 (12 mg TID); read-out: Plasma AUCtau, geometric mean (geometric CV %)
measured-parameter: AUC
# do not omit the unit; it follows the number

Return reported AUC; argument: C[C@H]1CN2CCNCc3ccc(C(=O)NCC(F)F)c1c32 [Compound 1] 190 ng·h/mL

----------
experiment: Phase 1 multiple-dose study, plasma PK; assay type: in vivo, human; settings: both sexes, human, plasma, oral, 12 mg, Day 10; Cohort 2 (12 mg TID); read-out: Plasma T1/2, mean (SD) (converted)
measured-parameter: half-life (h)
Field: numeric (h). Do not append units.

Reported half-life for C[C@H]1CN2CCNCc3ccc(C(=O)NCC(F)F)c1c32 [Compound 1] : what is it? 4.08

----------
assay: Phase 1 multiple-dose study, plasma PK; format: in vivo, human; settings: both sexes, human, plasma, oral, 6 mg, Day 9; Cohort 1 (6 mg TID); read-out: Plasma T1/2, mean (SD) (converted)
measured-parameter: half-life
Please give the number followed by its unit.

Can you share its half-life? I mean this compound: C[C@H]1CN2CCNCc3ccc(C(=O)NCC(F)F)c1c32 3.85 h

----------
assay: Phase 1 multiple-dose study, plasma PK; assay type: in vivo, human; conditions: both sexes, human, plasma, oral, 18 mg, Day 10; Cohort 4B (18 mg BID); read-out: Plasma AUCtau, geometric mean (geometric CV %)
measured-parameter: AUC
Kindly write the number and append the unit.

Given the entry C[C@H]1CN2CCNCc3ccc(C(=O)NCC(F)F)c1c32 [Compound 1] , report its measured AUC. 224 ng·h/mL

----------
assay: Phase 1 multiple-dose study, plasma PK; format: in vivo, human; settings: both sexes, human, plasma, oral, 18 mg, Day 8; Cohort 4B (18 mg BID); read-out: Plasma Tmax, median (minimum, maximum)
measured-parameter: Tmax (min)
Answer in min, number only, no unit symbol.

What value of Tmax has been reported for the following compound? C[C@H]1CN2CCNCc3ccc(C(=O)NCC(F)F)c1c32 59.4

----------
assay: Phase 1 multiple-dose study, plasma PK; assay type: in vivo, human; conditions: both sexes, human, plasma, oral, 18 mg, Day 9; Cohort 4B (18 mg BID); read-out: Plasma AUCtau, geometric mean (geometric CV %)
measured-parameter: AUC (ng·h/mL)
The answer is to be given in ng·h/mL; state only the numeric part.

Endpoint output: AUC of C[C@H]1CN2CCNCc3ccc(C(=O)NCC(F)F)c1c32 . Value? 242

FYI, the data here is from patent US20240216392A1.
